# credit: paper PMC6691761

Attribute: IC50
- Tested on: human acute mononuclear granulocyte leukaemia (THP-1)
- assay-method-text: Cytotoxicity, MTT assay, THP-1
- Format: cell-based
- experimental-context: MTT, 24 h
Quick note: give the figure in µM, leave out the unit.

Some entries whose results are on file:
INSERT INTO assay_data (chemical_smiles, observed_property, result_unit, numeric_result) VALUES
  ('CN1CC(=Cc2cccc(N=Cc3cc(Br)ccc3O)c2)C(=O)C(=Cc2ccccc2F)C1', 'IC50', 'µM', 1.1),
  ('COc1ccccc1/C=C1\CN(C)C/C(=C\c2cc(OC)c(OC)c(OC)c2)C1=O', 'IC50', 'µM', 7.9);

Prompt: # return recorded IC50 for entry "CN1C/C(=C\c2cc(F)cc(F)c2)C(=O)/C(=C/c2cccc([N+](=O)[O-])c2)C1"
Response: 5.4

Prompt: Please indicate IC50 recorded for "COc1ccc(C=Nc2cccc(C=C3CN(C)CC(=Cc4ccccc4F)C3=O)c2)c(O)c1"
Response: 3.5

Prompt: Retrieve IC50 measured for "CN1CC(=Cc2cccc(N=Cc3ccc(Cl)cc3)c2)C(=O)C(=Cc2ccccc2F)C1" and print it.
Response: 4

Prompt: Recall and state the measured IC50 for "CN1CC(=Cc2cccc(N=Cc3cc(F)ccc3O)c2)C(=O)C(=Cc2ccccc2F)C1" .
Response: 2.4

Prompt: Consider the compound "CN1CC(=Cc2cccc(N=Cc3cc([N+](=O)[O-])ccc3F)c2)C(=O)C(=Cc2ccccc2F)C1" . State its measured IC50.
Response: 8.1

Prompt: State its IC50 for this compound: "COc1cc(Br)c(O)c(C=Nc2cccc(C=C3CN(C)CC(=Cc4ccccc4F)C3=O)c2)c1"
Response: 5

---

Recorded measurements of IC50, one per entry
- Test system: human cervical carcinoma cells (HeLa)
- assay-method-text: Cytotoxicity, MTT assay, HeLa
- Format: cell-based
- experimental-context: MTT, 24 h
- Excerpt: Compounds 83–102 were screened against human neoplastic cell lines, such as human breast cancer cells (MCF-7), human colon cancer cells (HCT116), human lung carcinoma cells (A549), human gastric adenocarcinoma cells (SGC7901), human liver hepatocellular carcinoma cell line (HepG2), human cervical carcinoma cells (HeLa), human acute mononuclear granulocyte leukaemia (THP-1), and human normal hepatic cell line (LO2) using modified MTT assay. […]
Express your answer in µM, writing the number without its unit.

Observe how each entry below is paired with its result.
INSERT INTO measurements (molecule, numeric_result) VALUES
  ('COc1ccc(C=Nc2cccc(C=C3CN(C)CC(=Cc4ccccc4F)C3=O)c2)c(O)c1 [Compound 101]', 8.9),
  ('COc1cc(Br)c(O)c(C=Nc2cccc(C=C3CN(C)CC(=Cc4ccccc4F)C3=O)c2)c1 [Compound 102]', 9.1);

Let us examine a further case.
Prompt: Tell me measured IC50 for CN1C/C(=C\c2cccc([N+](=O)[O-])c2)C(=O)/C(=C/c2ccc(F)cc2Br)C1 [Compound 87] please.
Response: 9.4

---

- Test system: human acute mononuclear granulocyte leukaemia (THP-1)
- assay-method-text: Cytotoxicity, MTT assay, THP-1
- Type: cell-based
- experimental-context: MTT, 24 h
- Text: Compounds 83–102 were screened against human neoplastic cell lines, such as human breast cancer cells (MCF-7), human colon cancer cells (HCT116), human lung carcinoma cells (A549), human gastric adenocarcinoma cells (SGC7901), human liver hepatocellular carcinoma cell line (HepG2), human cervical carcinoma cells (HeLa), human acute mononuclear granulocyte leukaemia (THP-1), and human normal hepatic cell line (LO2) using modified MTT assay. […]
observed-property: IC50 (µM)
State just the number; it will be interpreted in µM.

INSERT INTO assay_data (molecule, observed_property, numeric_result) VALUES
  ('COc1cc(/C=C2\CN(C)C/C(=C\c3ccc(F)cc3Br)C2=O)cc(OC)c1OC [Compound 88]', 'IC50', 7.6);

Prompt: State its IC50: CN1CC(=Cc2cccc(N=Cc3ccc(O)c(O)c3O)c2)C(=O)C(=Cc2ccccc2F)C1 [Compound 100]
Response: 7.7

Prompt: Tell me IC50 reported for CN1CC(=Cc2cccc(N=Cc3cc(O)ccc3O)c2)C(=O)C(=Cc2ccccc2F)C1 [Compound 99]
Response: 7.8

Prompt: Give a short answer stating reported IC50 for CN1C/C(=C\c2cccc([N+](=O)[O-])c2)C(=O)/C(=C/c2ccc(F)cc2Br)C1 [Compound 87] .
Response: 6.6
